Origin of measurements: PubChem BioAssay (NCI)

# Test system: UO-31 renal
# assay_overview: NCI tumour cell line growth inhibition, 48 h
The compounds listed here are annotated with their GI50.

Here's what some known entries look like.
COCCc1n(Cc2ccc3ccccc3c2)c2ccccc2[n+]1Cc1ccc2ccccc2c1 ... 1.48 µM
CCC(=O)N1C/C(=C/c2ccc(Br)cc2)C(=O)/C(=C/c2ccc(Br)cc2)C1 ... 0.607 µM
COc1ccc(S(=O)(=O)Nc2c(/C=C\c3cc(OC)c(OC)c(OC)c3)ccc(OC)c2O)cc1 ... 0.0619 µM

Problem: Recorded GI50 for CC1=C(C(=O)Nc2ccc(F)c(Cl)c2)C(c2cccc(Oc3ccccc3)c2)NC(=S)N1 (configuration not stated) , please?
Solution: 13.3 µM

Problem: How about `O=C1NC2(CCCCC2)C(=O)N1CCN(CCCl)CCCl` ?
Solution: > 25 µM

Problem: How about `CC(=O)/C(Br)=C/c1ccc(Br)o1` ?
Solution: 10.2 µM

Problem: How about `Nc1ncc(-c2ccc3ncnc(N4CCc5ccc(Cl)cc54)c3c2)cc1C(F)(F)F` ?
Solution: 0.254 µM

Problem: How about CCC(C)C1=C(O)[N+]2([O-])Oc3ccc(C4=C(O)C(=O)C(c5ccc(O)cc5)=C(O)C4=O)cc3OC2(C(C)CC)C(=O)N1O (configuration not stated) ?
Solution: 22.2 µM

Problem: How about `C[N+](C)(C)c1cc[c]([Sn]([c]2ccc([N+](C)(C)C)cc2)([c]2ccc([N+](C)(C)C)cc2)[c]2ccc([N+](C)(C)C)cc2)cc1` ?
Solution: > 100 µM

Problem: How about `CCCCCCCCCCNCCSS(=O)(=O)O` ?
Solution: 3.3 µM

Problem: How about `O=C1Nc2ccccc2/C1=C\c1nc(-c2ccccc2F)n2ccccc12` ?
Solution: 2.12 µM

Problem: How about `O=C(Nc1cc(Cl)ccc1O)c1cccc(Nc2ccnc(C(F)(F)F)c2)c1` ?
Solution: 2.3 µM

====

# Tested on: SF-539 CNS
# assay_overview: NCI tumour cell line growth inhibition, 48 h
The molecules listed here are annotated with their TGI.

O=C1CCC2c3ccccc3NCN12 (stereo unspecified) ... > 100 µM
O=C1NC2(CCCCC2)C(=O)N1CCN(CCCl)CCCl ... > 250 µM
CCCCSCC(NC(=O)/C=C/c1c(C)[nH]c(=O)[nH]c1=O)C(=O)OC (stereo unspecified) ... 254 µM
CN(/N=C/c1ccccn1)C1=NCCCN1 ... > 100 µM
CC1=NN2C(c3ccc([N+](=O)[O-])cc3)=CSC2=NC(C)(C)C1 ... > 100 µM

Problem: Recorded TGI for `C/C=C/C(=O)[O-].C/C=C/C(=O)[O-].N.N.N.N.[Co+3].[O-][Cl+3]([O-])([O-])[O-]` , please?
Solution: > 100 µM

Problem: How about `O=C(Nc1cc(Cl)ccc1O)c1cccc(Nc2ccnc(C(F)(F)F)c2)c1` ?
Solution: 15 µM

Problem: How about `S=C(N/N=C/c1ccccn1)N1CC2CCC(CC2)C1` ?
Solution: 0.287 µM

====

# Test system: RPMI-8226 leukemia
# assay_overview: NCI tumour cell line growth inhibition, 48 h
metric_name: TGI

NC(=O)c1ccc([N+](=O)[O-])cc1 ... > 100 µM

Problem: GET /values?readout=TGI&system=RPMI-8226 leukemia&item= `O=S(=O)(O)c1ccc2c(N=Nc3ccc(S(=O)(=O)O)c4ccccc34)c(O)c(S(=O)(=O)O)cc2c1`
Solution: > 100 µM

Problem: How about `N=C(N)c1ccc(-c2ccc(-c3ccc4ccccc4c3)s2)s1` ?
Solution: 5.02 µM

Problem: How about `COc1ccc(CCNC(=O)c2ccccc2C2c3ccc(OCc4ccccc4)cc3Oc3cc(OCc4ccccc4)ccc32)cc1OC` ?
Solution: > 100 µM

Problem: How about CC(=O)c1ccccc1NC(=O)C(=O)C(C(=O)c1ccccc1-c1ccccc1)C1OC(=O)c2ccccc21 (stereo unspecified) ?
Solution: > 100 µM

Problem: How about `C#C[C@@]1(O)[C@@H](CO)O[C@@H](n2cc(C(F)(F)F)c3c(N)ncnc32)[C@@H]1O` ?
Solution: 4.56 µM
